Listed below: Activity values for each entry.
# Test system: Rattus norvegicus
# EXPERIMENTAL_DETAILS: Hepatotoxicity in Wistar albino rat assessed as change in serum gamma-GT level at 0.5 mg/kg, ip measured after 24 hrs
# Type: toxicity, organism-based
# Set-up: dose 0.5 mg/kg, route intraperitoneal
# CONDITION_CONTEXT: in vivo
Give the value in U/L but do not write U/L after it.

Take a look at these entries with their results.
>>> df
                           substance_smiles      tested_system  observable  units_symbol  recorded_result
0      CCN(CC)c1nc(-c2c(O)c3ccccc3oc2=O)cs1  Rattus norvegicus    Activity           U/L              4.4
1  COC(=O)/C(C(=O)O)=C(\C)c1c(O)c2ccccc2oc1=O  Rattus norvegicus    Activity           U/L              4.4

Quick one: Activity of O=C(O)CCCCNc1nc(-c2c(O)c3ccccc3oc2=O)cs1 ?
3.5

Look up Activity for this molecule: COC(=O)/C=C(/C)c1c(O)c2ccccc2oc1=O
3

Request the reported Activity associated with CC(=O)c1c(O)c2ccccc2oc1=O
3.8
